Species: Rattus norvegicus
Type: toxicity, organism-based, Sprague-Dawley
Conditions: in vivo, po, 1200 mg/kg, 24 h, tissue Blood, route oral GAVAGE, dose level High, time 1 day, […]
Description: DrugMatrix - Regimen: Single
metric.name: ABSOLUTE EOSINOPHIL
Could you kindly put the unit after your number?

Briefly, ABSOLUTE EOSINOPHIL measured for CC[C@H](C)C(=O)O[C@H]1C[C@H](O)C=C2C=C[C@H](C)[C@H](CC[C@@H](O)C[C@@H](O)CC(=O)O)[C@H]21 : 41.3 cells/µL

###

Species: Rattus norvegicus
Assay: DrugMatrix - Regimen: Daily Repeat
Assay type: toxicity, organism-based, Sprague-Dawley
Parameters: regimen Daily Repeat, gender Male, age 6-8 weeks
Details: in vivo, po, 1500 mg/kg, 72 h, tissue Plasma, route oral GAVAGE, dose level High, time 3 day, vehicle .5 % CMC
Exercise: state measured CREATININE for each of the molecules provided.
Give bare numbers, in mg/dL.

# annotated cases, reported CREATININE shown
Briefly, CREATININE measured for CCOC(=O)[C@H](CCc1ccccc1)N[C@@H](C)C(=O)N1CCC[C@H]1C(=O)O : 0.28

Briefly, CREATININE measured for Nc1nc2c(c(=O)[nH]1)N(C=O)C(CNc1ccc(C(=O)N[C@@H](CCC(=O)O)C(=O)O)cc1)CN2 (stereo not given in full) : 0.15

Briefly, CREATININE measured for O=c1cc(-c2ccccc2)oc2ccc3ccccc3c12 : 0.4

Would you mind listing CREATININE for each of the following molecules?
1. C[C@@H](O)[C@H]1C(=O)N2C(C(=O)O)=C(S[C@@H]3CN[C@H](C(=O)N(C)C)C3)[C@H](C)[C@H]12
2. CC(C)(Sc1cc(C(C)(C)C)c(O)c(C(C)(C)C)c1)Sc1cc(C(C)(C)C)c(O)c(C(C)(C)C)c1

[0.17, 0.19]

Each recorded value in this set is attributed to ChEMBL document CHEMBL3885881.
